Collected log10(Ki) for Adenosine receptor A2a (Homo sapiens) across several studies; molecules listed below.
ENDPOINT NAME: log10(Ki) (log10 of the value in nM)

{"MOLECULE": "N#Cc1cccc(-c2nc(NC(=O)N3CC4(COC4)C3)sc2-c2cc(CO)nc(C(F)(F)F)c2)c1", "MEASURED RESULT": -0.62}
{"MOLECULE": "Cc1cc(-c2c(-c3cccc(C#N)c3)nn3ccc(C(=O)N[C@@H](C)C(C)(C)O)nc23)cc(Cl)n1", "MEASURED RESULT": -1.00}
{"MOLECULE": "Cc1cc(-c2sc(NC(=O)N3C[C@H]4OCCN(C)[C@H]4C3)nc2-c2cccc(C#N)c2)cc(C(F)F)n1 (racemic)", "MEASURED RESULT": 0.03}
{"MOLECULE": "Cc1cc(-c2c(-c3cccc(C#N)c3)nn3ccc(C(=O)N[C@H]4CN(C)C[C@H]4O)nc23)cc(C)n1", "MEASURED RESULT": 0.18}
{"MOLECULE": "CCn1nnc(C2OC(n3cnc4c(NCC(c5ccc(O)cc5)c5ccc(O)cc5)nc(N5CCC(NC(=O)c6ccc(N7CCOCC7)nc6)C5)nc43)C(O)C2O)n1 (stereo not drawn)", "MEASURED RESULT": 0.78}
{"MOLECULE": "Cc1cc(-c2sc(NC(=O)N3CCC(C)(O)CC3)nc2-c2cccc(C#N)c2)cc(C)n1", "MEASURED RESULT": -0.28}
{"MOLECULE": "Cc1cc(-c2sc(NC(=O)N3CCOCC3C(C)(C)O)nc2-c2cccc(C#N)c2)cc(Cl)n1 (stereo not drawn)", "MEASURED RESULT": 1.16}
{"MOLECULE": "N#Cc1c(-c2cnco2)nn2ccc(N3CCN(CCF)CC3)nc12", "MEASURED RESULT": 2.56}
{"MOLECULE": "Cc1cc(-c2sc(NC(=O)N3CCN[C@@H](CO)C3)nc2-c2cccc(C#N)c2)cc(Cl)n1", "MEASURED RESULT": 0.36}
{"MOLECULE": "Cc1cc(-c2c(-c3cccc(C#N)c3)nn3ccc(NC(=O)C(C)(C)O)nc23)cc(C)n1", "MEASURED RESULT": 0.57}
{"MOLECULE": "Cc1cc(-c2sc(NC(=O)N3CC4(COC4)C3)nc2-c2cccc(C#N)c2)cc(C2CC2)n1", "MEASURED RESULT": -0.89}
{"MOLECULE": "NC1CCC(Nc2nc(NCC(c3ccccc3)c3ccccc3)c3ncn([C@@H]4C[C@H](n5cccn5)[C@@H](O)[C@H]4O)c3n2)CC1 (stereo partly drawn)", "MEASURED RESULT": 2.43}
{"MOLECULE": "Cc1cc(-c2c(-c3cccc(C#N)c3)nn3ccc(C(=O)NCC4(N)CC(F)(F)C4)nc23)cc(Cl)n1", "MEASURED RESULT": 0.63}
{"MOLECULE": "CCn1nccc1-c1c(-c2cccc(C#N)c2)nn2ccc(C(=O)NCC(C)(C)O)nc12", "MEASURED RESULT": 2.16}
{"MOLECULE": "Fc1ccccc1-c1cc2nc(NCc3ccccc3)ccn2n1", "MEASURED RESULT": 2.24}
